biological target: UniProtKB P10635; assay: CYP2D6 inhibition assay (bufuralol, pooled human liver microsomes); conditions: 2D6 IC50, CYP enzyme inhibition
List of pIC50 values.
Just so you know, pIC50 here is -log10 of the concentration in molar units; reply with that number alone.

>  <molecule>
CC(=O)CC(=O)N[C@@H](Cc1cccc(F)c1)[C@H](O)CN[C@H]1CC2(CCC2)Oc2ncc(CC(C)(C)C)cc21 [compound 466]

>  <pIC50>
5.05

$$$$

Here is another molecule to look at.
In plain terms, COCC(=O)N[C@@H](Cc1cccc(C(C)=O)c1)[C@H](O)CN[C@H]1CC2(CCC2)Oc2ncc(CC(C)(C)C)cc21 [compound 872] has a documented pIC50 of 5.24

---

target: CYP2D6 (Homo sapiens, UniProt P10635); assay: CYP2D6 inhibition assay (bufuralol, pooled human liver microsomes); settings: 2D6 IC50 (uM), CYP enzyme inhibition
Sequence (P10635 whole entry): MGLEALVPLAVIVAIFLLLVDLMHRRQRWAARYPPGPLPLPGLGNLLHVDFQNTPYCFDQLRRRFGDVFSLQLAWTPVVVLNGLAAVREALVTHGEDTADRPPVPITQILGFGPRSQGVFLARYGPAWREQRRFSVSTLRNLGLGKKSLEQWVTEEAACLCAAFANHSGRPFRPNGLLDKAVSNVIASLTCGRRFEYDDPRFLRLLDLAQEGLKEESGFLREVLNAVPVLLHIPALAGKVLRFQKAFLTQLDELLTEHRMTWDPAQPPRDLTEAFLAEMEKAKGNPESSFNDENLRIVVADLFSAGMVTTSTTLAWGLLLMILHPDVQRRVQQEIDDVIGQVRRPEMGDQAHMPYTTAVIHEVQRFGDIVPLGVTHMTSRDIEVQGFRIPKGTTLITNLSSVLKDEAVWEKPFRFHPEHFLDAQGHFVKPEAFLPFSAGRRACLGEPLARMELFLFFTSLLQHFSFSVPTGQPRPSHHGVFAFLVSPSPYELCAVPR
hey, just use yes if measured IC50 is less than 3 µM, otherwise no

// below: answered compounds
>  <chemical-structure>
COCC(=O)N[C@@H](Cc1cccc(Br)c1)[C@H](O)CN[C@H]1CC2(CCC2)Oc2ncc(CC(C)C)cc21

>  <group>
yes

$$$$
>  <chemical-structure>
CCOCC(=O)N[C@@H](Cc1ccc2c(c1)OCO2)[C@H](O)CN[C@H]1CC2(CCC2)Oc2ncc(CC(C)(C)C)cc21

>  <group>
yes

$$$$
>  <chemical-structure>
CC#Cc1ccc2c(c1)[C@@H](NC[C@@H](O)[C@H](Cc1cc(F)cc(-c3nccs3)c1)NC(=O)COC)CC1(CCC1)O2

>  <group>
yes

$$$$

*Q* Take the compound COCC(=O)N[C@@H](Cc1cccc(-c2nccs2)c1)[C@H](O)CN[C@H]1CC2(CCC2)Oc2ncc(CC(C)C)cc21 and say whether its IC50 is less than 3 µM.
*A* yes

*Q* Report whether reported IC50 is lower than 3 µM (strictly) for CC(C)(C)Cc1cnc2c(c1)[C@@H](NC[C@@H](O)[C@H](Cc1ccc(F)cc1)NC(=O)[C@@H]1CN(Cc3cscn3)CCO1)CC1(CCC1)O2
*A* no

*Q* Please indicate whether the reported IC50 of CO[C@H](C)C(=O)N[C@@H](Cc1ccc2c(c1)OCO2)[C@H](O)CN[C@@H]1c2cc(CC(C)(C)C)cnc2OC2(CCC2)[C@@H]1F is strictly below 3 µM.
*A* no

*Q* Lab note: confirm whether the reported IC50 for this compound is below 3 µM, equality not counting. compound: Cc1nc(CN2CCO[C@@H](C(=O)N[C@@H](Cc3ccc(F)cc3)[C@H](O)CN[C@H]3CC4(CCC4)Oc4ncc(CC(C)(C)C)cc43)C2)cs1
*A* no

*Q* Determine whether this compound shows IC50 lower than 3 µM (ties excluded): COCC(=O)N[C@@H](Cc1cccc(-c2ncc(C)s2)c1)[C@H](O)CN[C@H]1CC2(CCC2)Oc2ncc(CC(C)(C)C)cc21
*A* yes

*Q* Field: below-cutoff. Rule: recorded IC50 strictly less than 3 µM. Subject: COC(OC)C(=O)N[C@@H](Cc1cccc(F)c1)[C@H](O)CN[C@H]1CC2(CCC2)Oc2ncc(CC(C)(F)F)cc21
*A* no

*Q* Lab log: compare recorded IC50 with 3 µM; is it strictly lower for CO[C@H](C)C(=O)N[C@@H](Cc1cc(F)cc(F)c1)[C@H](O)CN[C@H]1CC2(CCC2)Oc2c1cc(CC(C)(C)C)nc2-n1ccnc1 ?
*A* yes

*Q* Dear reviewer, please state whether C#Cc1cccc(C[C@H](NC(=O)[C@@H](C)OC)[C@H](O)CN[C@H]2CC3(CCC3)Oc3ncc(CC(C)C)cc32)c1 has IC50 strictly beneath 3 µM.
*A* yes

*Q* Hi there! Is IC50 for CC(C)Cc1cnc2c(c1)[C@@H](NC[C@H](O)[C@@H](Cc1cccc(-c3nccs3)c1)NC(=O)[C@@H]1CCCO1)CC1(CCC1)O2 below 3 µM, do you know?
*A* yes

---

assay: Microsomal stability assay, human liver microsomes; details: human liver microsomal data
HLM by entry:
A complete answer gives the number followed by the unit.

# annotated cases, reported HLM shown
>  <compound>
COCCC(=O)N[C@@H](Cc1cccc(-c2nccs2)c1)[C@H](O)CN[C@H]1CC2(CCC2)Oc2ncc(CC(C)(C)C)cc21 [compound 791]

>  <experimental-result>
43 µL/min/mg

$$$$
>  <compound>
CO[C@H](C)C(=O)N[C@@H](Cc1cc(F)cc(F)c1)[C@H](O)CN[C@H]1CC2(CCC2)Oc2c(-c3ccncc3)cc(Cl)cc21 [compound 561]

>  <experimental-result>
113 µL/min/mg

$$$$
>  <compound>
CO[C@H](C)C(=O)N[C@@H](Cc1ccc2c(c1)OCO2)[C@H](O)CN[C@H]1CC2(CCC2)Oc2ccc(C[C@H](C)F)cc21 [compound 555]

>  <experimental-result>
269 µL/min/mg

$$$$
>  <compound>
C#Cc1cccc(C[C@H](NC(=O)COC)[C@H](O)CN[C@H]2CC3(CCC3)Oc3ncc(CC(C)(C)C(F)(F)F)cc32)c1 [compound 838]

>  <experimental-result>
34 µL/min/mg

$$$$
>  <compound>
CO[C@H](C)C(=O)N[C@@H](Cc1cc(F)cc(F)c1)[C@H](O)CN[C@H]1CC2(CCC2)Oc2c(-c3cncs3)cc(CC(C)C)cc21 [compound 491]

>  <experimental-result>
345 µL/min/mg

$$$$
>  <compound>
COCC(=O)N[C@@H](Cc1ccc(F)cc1)[C@H](O)CN[C@H]1CC2(CCC2)Oc2nc(C)c(CC(C)(C)C)cc21 [compound 468]

>  <experimental-result>
736 µL/min/mg

$$$$
>  <compound>
C#Cc1cc(C[C@H](NC(=O)COC)[C@H](O)CN[C@H]2CC3(CCC3)Oc3ncc(CC(C)C)cc32)ccc1F [compound 780]

>  <experimental-result>
61 µL/min/mg

$$$$
>  <compound>
COCC(=O)N[C@@H](Cc1cc(F)cc(F)c1)[C@H](O)CN[C@H]1CC2(CCC2)Oc2c(-c3ccncc3)cc(Cl)cc21 [compound 560]

>  <experimental-result>
209 µL/min/mg

$$$$

Value of HLM reported for the compound CC(=O)N[C@@H](Cc1cccc(F)c1)[C@H](O)CN[C@H]1CC2(CCC2)Oc2c1cc(CC(C)(C)C)nc2-c1ccncc1 [compound 532] is 40 µL/min/mg

Entry CO[C@H](C)C(=O)N[C@@H](Cc1ccc(F)cc1)[C@H](O)CN[C@H]1CC2(CCC2)Oc2c1cc(CC(C)C)cc2-n1ccnc1 [compound 482] — recorded HLM = 27 µL/min/mg

CCOCC(=O)N[C@@H](Cc1cccc(-c2ncco2)c1)[C@H](O)CN[C@H]1CC2(CCC2)Oc2ncc(CC(C)(C)C)cc21 [compound 901] has a reported HLM of 74 µL/min/mg

// HLM lookup, compound = CC(C)OCC(=O)N[C@@H](Cc1ccc(F)cc1)[C@H](O)CN[C@H]1CC2(CCC2)Oc2ncc(CC(C)(C)C)cc21 [compound 565] , result: 921 µL/min/mg

The compound COCC(=O)N[C@@H](Cc1ccc2c(c1)OCO2)[C@H](O)CN[C@H]1CC2(CCC2)Oc2ccc(C[C@H](C)F)cc21 [compound 557] showed HLM equal to 193 µL/min/mg

// sample C#Cc1cccc(C[C@H](NC(=O)COC)[C@H](O)CN[C@H]2C[C@@]3(CCOC3)Oc3ncc(CC(C)(C)C)cc32)c1 [compound 869] , its HLM was 21 µL/min/mg

---

test: Microsomal stability assay, human liver microsomes; conditions: human liver microsomes;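 note: pooled human liver microsomes at 0.25 mg/mL with 1 µM compound and NADPH at 37 °C, pH 7.4, for 30 min, unchanged parent quantified by LC-MS/MS against the 0 min sample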
Parameter HLM: see the listing below.
Unit µL/min/mg implied. Number only.

// solved cases for HLM follow
>  <compound>
CO[C@H](C)C(=O)N[C@@H](Cc1cc(F)cc(F)c1)[C@H](O)CN[C@H]1CC2(CCC2)Oc2c1cc(CC(C)C)nc2-c1nccn1C

>  <experimental-result>
20

$$$$
>  <compound>
CC(=O)N[C@@H](Cc1ccc(F)c(-c2cscn2)c1)[C@H](O)CN[C@H]1CC2(CCC2)Oc2ccc(CC(C)(C)C)cc21

>  <experimental-result>
135

$$$$
>  <compound>
CC(=O)N[C@@H](Cc1cc(Br)c2c(c1)OCO2)[C@H](O)CN[C@H]1CC2(CCC2)Oc2ncc(CC(C)(C)F)cc21

>  <experimental-result>
48

$$$$
>  <compound>
CO[C@H](C)C(=O)N[C@@H](Cc1ccc2c(c1)OCO2)[C@H](O)CN[C@H]1CC2(CCC2)Oc2nc3c(cc21)[C@H](C(C)C)CO3

>  <experimental-result>
61

$$$$
>  <compound>
COCC(=O)N[C@@H](Cc1ccc(F)c(-c2cncs2)c1)[C@H](O)CN[C@H]1CC2(CCC2)Oc2ncc(CC(C)(C)C)cc21

>  <experimental-result>
56

$$$$
>  <compound>
C[C@H](F)C(=O)N[C@@H](Cc1cccc(F)c1)[C@H](O)CN[C@H]1CC2(CCC2)Oc2ncc(CC(C)(F)F)cc21

>  <experimental-result>
232

$$$$
>  <compound>
COCC(=O)N[C@@H](Cc1cccc(F)c1)[C@H](O)CN[C@H]1CC2(CCC2)Oc2c1cc(C=C(C)C)cc2-n1ccnc1

>  <experimental-result>
27

$$$$
>  <compound>
COCC(=O)N[C@@H](Cc1cccc(F)c1)[C@H](O)CN[C@H]1CC2(CCC2)Oc2c(-c3ccnc(N(C)C)c3)cc(CC(C)(C)C)cc21

>  <experimental-result>
601

$$$$
>  <compound>
COCC(=O)N[C@@H](Cc1ccc2c(c1)OCO2)[C@H](O)CN[C@H]1CC2(CCC2)Oc2cnc(CC(C)C)cc21

>  <experimental-result>
193

$$$$
>  <compound>
CC(=O)N[C@@H](Cc1ccc(F)c(-c2nccs2)c1)[C@H](O)CN[C@H]1CC2(CCC2)Oc2ncc(CC(C)(C)C)cc21

>  <experimental-result>
45

$$$$

HLM in this record for CC(=O)N[C@@H](Cc1cc(F)cc(-c2nccs2)c1)[C@H](O)CN[C@H]1CC2(CCC2)Oc2ncc(CC(C)(C)C)cc21 [Example 643] : 68

Record CC(=O)N[C@@H](Cc1cccc(-c2cncs2)c1)[C@H](O)CN[C@H]1CC2(CCC2)Oc2ncc(CC(C)(C)C)cc21 . Reported HLM: 130

Per the record, CO[C@H](C)C(=O)N[C@@H](Cc1cccc(F)c1)[C@H](O)CN[C@H]1CC2(CCC2)Oc2c(-c3ccncc3)cc(CC(C)(C)C)cc21 has HLM of 65.5
